This collection of values is drawn from patent US4315014A.

# Test system: Pseudomonas aeruginosa #28
# assayMethodText: Minimal Inhibitory Concentration, Pseudomonas aeruginosa #28
# Assay type: cell-based
endpointName: MIC (µg/mL)

[A] CC1(C)S[C@@H]2[C@H](NC(=O)[C@H](NC(=O)c3ccc(-c4ccc(NS(=O)(=O)C(F)(F)F)cc4)[nH]c3=O)c3ccccc3)C(=O)N2[C@H]1C(=O)O
[B] CC1(C)S[C@@H]2[C@H](NC(=O)[C@H](NC(=O)c3ccc(-c4cccc(NS(C)(=O)=O)c4)[nH]c3=O)c3ccccc3)C(=O)N2[C@H]1C(=O)O
[C] CC1(C)S[C@@H]2[C@H](NC(=O)[C@H](NC(=O)c3ccc(-c4ccc(NS(C)(=O)=O)cc4)[nH]c3=O)c3ccccc3)C(=O)N2[C@H]1C(=O)O
[D] CC1(C)S[C@@H]2[C@H](NC(=O)[C@H](NC(=O)c3ccc(-c4ccc(NS(C)(=O)=O)cc4)[nH]c3=O)c3ccc(O)cc3)C(=O)N2[C@H]1C(=O)O
Rank the listed compounds, smallest MIC first and largest last. I'd appreciate it if you listed the labels in the requested order.
D, C, A, B
(D: 1.6 µg/mL, C: 3.1 µg/mL, A: 6.3 µg/mL, B: 12.5 µg/mL)

###

Values of MIC reported for Klebs. pneu. appear below.
endpointName: MIC (µg/mL)

| molecule | measuredTarget | MIC (µg/mL) |
| --- | --- | --- |
| CC1(C)S[C@@H]2[C@H](NC(=O)[C@H](NC(=O)c3ccc(-c4ccc(NS(=O)(=O)CCc5ccncc5)cc4)[nH]c3=O)c3ccccc3)C(=O)N2[C@H]1C(=O)O [Example 8] | Klebs. pneu. | 3.1 |

[I] CC(=O)OCCCS(=O)(=O)Nc1ccc(-c2ccc(C(=O)N[C@@H](C(=O)N[C@@H]3C(=O)N4[C@@H]3SC(C)(C)[C@@H]4C(=O)O)c3ccccc3)c(=O)[nH]2)cc1 [Example 7]
[II] CC1(C)S[C@@H]2[C@H](NC(=O)[C@H](NC(=O)c3ccc(-c4cccc(NS(=O)(=O)c5cccnc5)c4)[nH]c3=O)c3ccccc3)C(=O)N2[C@H]1C(=O)O [Example 10]
Name the one with the greater MIC value, either I or II as given. Bench note: the answer is the label of the chosen record.
II
(II: 6.3 µg/mL, I: 3.1 µg/mL)

###

Values of MIC reported for Serr. marces. appear below.
endpointName: MIC (µg/mL)

| molecule | observed |
| --- | --- |
| CC1(C)S[C@@H]2[C@H](NC(=O)[C@H](NC(=O)c3ccc(-c4ccc(NS(=O)(=O)c5cccnc5)cc4)[nH]c3=O)c3ccccc3)C(=O)N2[C@H]1C(=O)O [Example 9] | 100 |

[1] CCCS(=O)(=O)Nc1ccc(-c2ccc(C(=O)N[C@@H](C(=O)N[C@@H]3C(=O)N4[C@@H]3SC(C)(C)[C@@H]4C(=O)O)c3ccccc3)c(=O)[nH]2)cc1 [Example 4]
[2] CC1(C)S[C@@H]2[C@H](NC(=O)[C@H](NC(=O)c3ccc(-c4cccc(NS(=O)(=O)c5cccnc5)c4)[nH]c3=O)c3ccccc3)C(=O)N2[C@H]1C(=O)O [Example 10]
Name the one with the greater MIC value, either 1 or 2 as given. Bench note: the answer is the label of the chosen record.
2
(2: 100 µg/mL, 1: 50 µg/mL)
